Origin of measurements: paper PMC9482650

# target-of-assay: T1, LRRC7, Q96NW7
# T1 sequence (Q96NW7 1440-1537, limits assumed, looked up): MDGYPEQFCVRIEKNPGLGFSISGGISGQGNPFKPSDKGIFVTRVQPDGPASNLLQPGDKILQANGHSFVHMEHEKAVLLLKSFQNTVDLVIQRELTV
# assay-text: holdup assay
# Design: key: below the threshold = too weak to quantify, mostly under pKd 3.1 to 4
# test-settings: plain residues with an end cap or a label only (N-terminal biotin on a linker: ttds)
property-measured: pKd

FVETQHQTQV [FAT3, Q8TDW7]    below the threshold
GRLLGLETNV [ARHGEF26, Q96DR7]    below the threshold
KLVIKTETTV [RASSF6, Q6ZTQ3]    below the threshold
